# ASSAY SUMMARY: in vitro
# CONDITION PARAMETERS: human, serum
OUTCOME MEASURE: fraction unbound at 24 h, 0.2 μmol/L

The examples below pair each entry with its known result.
COMPOUND	OUTCOME MEASURE	RESULT NUMBER
C=C[C@@H]1C[C@]1(NC(=O)[C@@H]1C[C@@H](Oc2ncc(OC)c3ccc(Cl)cc23)CN1C(=O)[C@@H](NC(=O)OC(C)(C)C)C(C)(C)C)C(=O)NS(=O)(=O)C1CC1 [Asunaprevir]	fraction unbound at 24 h, 0.2 μmol/L	0.005
COc1ccc2c(c1)[C@@H]1C[C@]1(C(=O)N1[C@@H]3CC[C@H]1CN(C)C3)Cn1c-2c(C2CCCCC2)c2ccc(C(=O)NS(=O)(=O)N(C)C)cc21 [Beclabuvir]	fraction unbound at 24 h, 0.2 μmol/L	0.007

a: C[C@]12C=CC(=O)N[C@@H]1CC[C@@H]1[C@@H]2CC[C@]2(C)[C@@H](C(=O)Nc3cc(C(F)(F)F)ccc3C(F)(F)F)CC[C@@H]12 [Dutasteride]
b: CNC(=O)c1ccc(N2C(=S)N(c3cnc(C#N)c(C(F)(F)F)c3)C(=O)C23CCC3)cc1F [Apalutamide]
c: C=CC(=O)N1CCC[C@@H](n2nc(-c3ccc(Oc4ccccc4)cc3)c3c(N)ncnc32)C1 [Ibrutinib]
Q: Parameters: sort_field (fraction unbound at 24 h, 0.2 μmol/L), sort_dir (desc). Put the labels in the requested order and write them down.
A: b, c, a
(b: 0.03, c: 0.019, a: 0.006)
